Recorded microsomal CLint, one value per entry.
- TEST: Intrinsic clearance in human liver microsomes
- Assay type: ADME, Microsome
- STATED CONDITIONS: read-out: CLH

[
  {
    "COMPOUND STRUCTURE": "CN(C)C(=O)CNCCc1cccc(OCCCC(F)(F)F)c1.Cl",
    "UOM": "µL/min/mg",
    "QUALIFIER SIGN": "<",
    "microsomal CLint": 3
  },
  {
    "COMPOUND STRUCTURE": "CN(C)C(=O)CNCCc1cccc(OCCCCC(F)(F)F)c1.Cl",
    "UOM": "µL/min/mg",
    "QUALIFIER SIGN": "=",
    "microsomal CLint": 10
  },
  {
    "COMPOUND STRUCTURE": "CN(C)C(=O)CNCCc1cccc(OCCCC(C)(F)F)c1.Cl",
    "UOM": "µL/min/mg",
    "QUALIFIER SIGN": "=",
    "microsomal CLint": 7
  },
  {
    "COMPOUND STRUCTURE": "CN(C)C(=O)CNCCc1cccc(OCCCC(F)(F)CF)c1.Cl",
    "UOM": "µL/min/mg",
    "QUALIFIER SIGN": "<",
    "microsomal CLint": 3
  }
]

* * *

- TARGET SYSTEM: Voltage-gated inwardly rectifying potassium channel KCNH2 (Homo sapiens, UniProt Q12809)
- Sequence (Q12809 whole entry): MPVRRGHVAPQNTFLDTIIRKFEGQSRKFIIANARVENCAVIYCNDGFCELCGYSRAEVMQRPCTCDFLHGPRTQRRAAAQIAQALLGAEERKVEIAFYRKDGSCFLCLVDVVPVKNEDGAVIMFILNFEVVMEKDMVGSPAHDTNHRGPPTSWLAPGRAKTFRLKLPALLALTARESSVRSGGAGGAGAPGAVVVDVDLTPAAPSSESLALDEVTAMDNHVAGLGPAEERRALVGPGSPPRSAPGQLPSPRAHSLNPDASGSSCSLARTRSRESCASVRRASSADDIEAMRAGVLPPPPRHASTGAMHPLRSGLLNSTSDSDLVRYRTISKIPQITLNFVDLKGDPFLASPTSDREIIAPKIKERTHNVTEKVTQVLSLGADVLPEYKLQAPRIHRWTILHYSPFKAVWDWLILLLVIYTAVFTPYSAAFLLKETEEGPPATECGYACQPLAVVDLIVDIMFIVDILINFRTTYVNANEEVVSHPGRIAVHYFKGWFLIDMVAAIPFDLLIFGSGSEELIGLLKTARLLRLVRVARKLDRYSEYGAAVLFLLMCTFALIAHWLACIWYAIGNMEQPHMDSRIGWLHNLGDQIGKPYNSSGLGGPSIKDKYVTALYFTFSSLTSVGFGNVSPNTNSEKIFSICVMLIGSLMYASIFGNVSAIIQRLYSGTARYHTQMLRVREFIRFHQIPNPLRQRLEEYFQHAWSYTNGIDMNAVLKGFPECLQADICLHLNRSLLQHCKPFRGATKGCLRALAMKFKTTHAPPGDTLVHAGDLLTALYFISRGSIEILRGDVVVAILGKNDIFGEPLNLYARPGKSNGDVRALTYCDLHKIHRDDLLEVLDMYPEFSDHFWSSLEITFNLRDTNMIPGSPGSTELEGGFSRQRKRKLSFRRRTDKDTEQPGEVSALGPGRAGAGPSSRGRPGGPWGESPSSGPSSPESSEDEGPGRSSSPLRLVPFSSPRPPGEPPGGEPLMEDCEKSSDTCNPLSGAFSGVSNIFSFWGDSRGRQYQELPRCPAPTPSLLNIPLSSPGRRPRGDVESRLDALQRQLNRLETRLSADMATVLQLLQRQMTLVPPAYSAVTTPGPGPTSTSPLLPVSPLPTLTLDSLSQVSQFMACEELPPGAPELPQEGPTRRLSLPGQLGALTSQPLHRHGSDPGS
- TEST: Inhibition of human ERG assessed as reduction in channel tail current by plate-based planar patch clamp assay
MEASUREMENT LABEL: IC50 (µM)

[
  {
    "COMPOUND STRUCTURE": "CN(C)C(=O)CNCCc1cccc(OCCCCC(F)(F)F)c1.Cl",
    "TARGET SYSTEM": "Voltage-gated inwardly rectifying potassium channel KCNH2 (Homo sapiens, UniProt Q12809)",
    "ASSAY RESULT": 9.6
  },
  {
    "COMPOUND STRUCTURE": "CN(C)C(=O)CNCCc1cccc(OCCCC(F)(F)CF)c1.Cl",
    "TARGET SYSTEM": "Voltage-gated inwardly rectifying potassium channel KCNH2 (Homo sapiens, UniProt Q12809)",
    "ASSAY RESULT": 15
  },
  {
    "COMPOUND STRUCTURE": "CCCCOc1cccc(CCNCC(=O)N(C)C)c1.Cl",
    "TARGET SYSTEM": "Voltage-gated inwardly rectifying potassium channel KCNH2 (Homo sapiens, UniProt Q12809)",
    "ASSAY RESULT": 9.4
  },
  {
    "COMPOUND STRUCTURE": "CN(C)C(=O)CNCCc1cccc(OCCCC(C)(F)F)c1.Cl",
    "TARGET SYSTEM": "Voltage-gated inwardly rectifying potassium channel KCNH2 (Homo sapiens, UniProt Q12809)",
    "ASSAY RESULT": 7.6
  },
  {
    "COMPOUND STRUCTURE": "CCCCCOc1cccc(CCNCC(=O)N(C)C)c1.Cl",
    "TARGET SYSTEM": "Voltage-gated inwardly rectifying potassium channel KCNH2 (Homo sapiens, UniProt Q12809)",
    "ASSAY RESULT": 1.8
  }
]

* * *

- TEST: Fraction unbound in 10% human plasma by equilibrium dialysis
- Format: ADME, cell-free

[
  {
    "COMPOUND STRUCTURE": "CN(C)C(=O)CNCCc1cccc(OCCCCC(F)(F)F)c1.Cl",
    "fraction unbound": 0.28
  },
  {
    "COMPOUND STRUCTURE": "CN(C)C(=O)CNCCc1cccc(OCCCC(F)(F)F)c1.Cl",
    "fraction unbound": 0.47
  },
  {
    "COMPOUND STRUCTURE": "CN(C)C(=O)CNCCc1cccc(OCCCC(F)(F)CF)c1.Cl",
    "fraction unbound": 0.47
  }
]

* * *

- TEST: Solubility of compound in aqueous phosphate buffer at pH 7.4 after 24 hrs at 25 degC
- Format: physicochemical
Recorded solubility at 24 h, one value per entry.

[
  {
    "COMPOUND STRUCTURE": "CN(C)C(=O)CNCCc1cccc(OCCCCC(F)(F)F)c1.Cl",
    "QUALIFIER SIGN": ">",
    "solubility at 24 h [µM]": 1000
  },
  {
    "COMPOUND STRUCTURE": "CN(C)C(=O)CNCCc1cccc(OCCCC(F)(F)CF)c1.Cl",
    "QUALIFIER SIGN": "=",
    "solubility at 24 h [µM]": 870
  },
  {
    "COMPOUND STRUCTURE": "CN(C)C(=O)CNCCc1cccc(OCCCC(F)(F)F)c1.Cl",
    "QUALIFIER SIGN": "=",
    "solubility at 24 h [µM]": 900
  },
  {
    "COMPOUND STRUCTURE": "CCCCCOc1cccc(CCNCC(=O)N(C)C)c1.Cl",
    "QUALIFIER SIGN": "=",
    "solubility at 24 h [µM]": 779
  },
  {
    "COMPOUND STRUCTURE": "CN(C)C(=O)CNCCc1cccc(OCCCC(C)(F)F)c1.Cl",
    "QUALIFIER SIGN": "=",
    "solubility at 24 h [µM]": 1000
  },
  {
    "COMPOUND STRUCTURE": "CCCCOc1cccc(CCNCC(=O)N(C)C)c1.Cl",
    "QUALIFIER SIGN": "=",
    "solubility at 24 h [µM]": 782
  }
]

* * *

- TEST: Lipophilicity, logP of the compound by 19F NMR-based method
- STATED CONDITIONS: octanol/water
Binary label based on logP with cut-off 0.9: below gives true (1), not below gives false (0).

[
  {
    "COMPOUND": "OCCCC(F)(F)CF",
    "ASSIGNED LABEL": "true (1)"
  },
  {
    "COMPOUND": "CN(C)C(=O)CNCCc1cccc(OCC(F)(F)C(C)(F)F)c1",
    "ASSIGNED LABEL": "false (0)"
  },
  {
    "COMPOUND": "CC[C@H](F)[C@H](C)O (racemic)",
    "ASSIGNED LABEL": "true (1)"
  },
  {
    "COMPOUND": "OCC(F)(F)F",
    "ASSIGNED LABEL": "true (1)"
  },
  {
    "COMPOUND": "OCCC(F)C(F)F (stereo unspecified)",
    "ASSIGNED LABEL": "true (1)"
  },
  {
    "COMPOUND": "OCCC(F)CC(F)(F)F (stereo unspecified)",
    "ASSIGNED LABEL": "true (1)"
  },
  {
    "COMPOUND": "OCCCC(F)CF (stereo unspecified)",
    "ASSIGNED LABEL": "true (1)"
  },
  {
    "COMPOUND": "OCCC(F)(F)CC(F)(F)F",
    "ASSIGNED LABEL": "false (0)"
  },
  {
    "COMPOUND": "CC(F)(F)C(F)(F)CO",
    "ASSIGNED LABEL": "true (1)"
  },
  {
    "COMPOUND": "OCCC(F)(F)CF",
    "ASSIGNED LABEL": "true (1)"
  },
  {
    "COMPOUND": "CCCCc1c[nH]c2ccccc12",
    "ASSIGNED LABEL": "false (0)"
  },
  {
    "COMPOUND": "OCC(F)(F)C(F)(F)C(F)(F)C(F)F",
    "ASSIGNED LABEL": "false (0)"
  },
  {
    "COMPOUND": "CCC(F)CCO (stereo unspecified)",
    "ASSIGNED LABEL": "true (1)"
  },
  {
    "COMPOUND": "CCCOc1ccc2[nH]ccc2c1",
    "ASSIGNED LABEL": "false (0)"
  },
  {
    "COMPOUND": "FCC(F)COc1ccc2[nH]ccc2c1 (stereo unspecified)",
    "ASSIGNED LABEL": "false (0)"
  },
  {
    "COMPOUND": "OCCCC(F)F",
    "ASSIGNED LABEL": "true (1)"
  }
]

* * *

- TEST: Lipophilicity, logD of the compound at 7.4 by the shake flask method
- Assay type: physicochemical
- STATED CONDITIONS: octanol/water, pH 7.4
Recorded logD, one value per entry.

[
  {
    "COMPOUND STRUCTURE": "CN(C)C(=O)CNCCc1cccc(OCCCC(F)(F)F)c1.Cl",
    "logD": 1.9
  },
  {
    "COMPOUND STRUCTURE": "CN(C)C(=O)CNCCc1cccc(OCCCCC(F)(F)F)c1.Cl",
    "logD": 2.3
  },
  {
    "COMPOUND STRUCTURE": "CN(C)C(=O)CNCCc1cccc(OCCCC(F)(F)CF)c1.Cl",
    "logD": 1.6
  }
]
